assay: chemical genetic growth profiling, strain panel (AID 1159580);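 also: tested at 20 µM; growth read once vehicle control cultures reached saturation at 30 °C; 1 = growth at the plate median or of vehicle wells; lower values mean less growth of the strain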; conditions: S. cerevisiae deletion strains, growth OD, locus YKL085W, strain MDH1 (second series)
The campaign covered roughly 5,500 compounds. About 2,000 (36%) were called active. Another 18% or so got no clear call; they are omitted. Rule as the data show it: active = normalized growth mostly below about 0.91 (no sharp cut-off); inconclusive = no clear call, values can overlap the other calls; inactive = mostly above about 0.92. The list shows a part of the results.
Please reply with one of these outcomes: Y for active, N for inactive

Worked set:
{"columns": ["MOLECULE", "LABEL"],
 "data": [
  ["CO[C@]12C[C@@H](COC(=O)c3cncc(Br)c3)CN(C)[C@@H]1Cc1cn(C)c3cccc2c13", "N"],
  ["CC(=O)Nc1nnc(S(N)(=O)=O)s1", "N"],
  ["O=C(Nc1ccccc1)Nc1ccccc1", "N"]
]}

-- ask Give the logged outcome of this assay for the following molecule: NC(Cc1ccc(F)cc1)C(=O)O (stereo not drawn)
-- reply N

-- ask Give the logged outcome of this assay for the following molecule: CC(CCC(=O)O)[C@H]1CCC2C3C(C[C@H](O)[C@@]21C)[C@@]1(C)CC[C@@H](O)C[C@H]1C[C@H]3O (stereo partly drawn)
-- reply N

-- ask Give the logged outcome of this assay for the following molecule: `O=c1cc(-c2ccccc2)oc2cc(O)cc(O)c12`
-- reply Y

-- ask Give the logged outcome of this assay for the following molecule: `N[C@@H](Cc1cc(I)c(Oc2cc(I)c(O)c(I)c2)c(I)c1)C(=O)O`
-- reply N

-- ask Give the logged outcome of this assay for the following molecule: `Cc1cc(=O)oc2c(O)c(O)ccc12`
-- reply N

-- ask Give the logged outcome of this assay for the following molecule: CC(CCC(=O)O)[C@H]1CCC2C3CC[C@@H]4C[C@H](O)CC[C@]4(C)C3C[C@H](O)[C@@]21C (stereo partly drawn)
-- reply N

-- ask Give the logged outcome of this assay for the following molecule: `COc1cc([C@@H]2c3cc4c(cc3[C@H](OC(C)=O)[C@H]3COC(=O)[C@@H]23)OCO4)cc(OC)c1OC`
-- reply N

-- ask Give the logged outcome of this assay for the following molecule: CC[C@H](CCC(C)[C@H]1CCC2C3CCC4C[C@@H](O)CC[C@]4(C)C3CC[C@@]21C)C(C)C (stereo partly drawn)
-- reply N

-- ask Give the logged outcome of this assay for the following molecule: `COc1cc(C)c(C(=O)Oc2cc(C)c(C(=O)O)c(O)c2C)c(OC)c1C`
-- reply N

-- ask Give the logged outcome of this assay for the following molecule: `CC(=O)Nc1ccccc1`
-- reply N

-- ask Give the logged outcome of this assay for the following molecule: CCC(=O)c1ccc2c(c1)N(CC(C)N(C)C)c1ccccc1S2 (stereo not drawn)
-- reply N

-- ask Give the logged outcome of this assay for the following molecule: `Nc1cc(-c2ccncc2)c[nH]c1=O`
-- reply N

-- ask Give the logged outcome of this assay for the following molecule: CC(=O)OCC(=O)[C@@]1(O)[C@H](OC(C)=O)CC2C3CCC4=CC(=O)C=C[C@]4(C)[C@@]3(F)[C@@H](O)C[C@@]21C (stereo partly drawn)
-- reply N

-- ask Give the logged outcome of this assay for the following molecule: `N#C/C(=C\c1cccc(O)c1)C(=O)O`
-- reply N

-- ask Give the logged outcome of this assay for the following molecule: `COc1cc2c(cc1/C=C/C(=O)c1cc(OC)c(OC)cc1OC)OCO2`
-- reply N

-- ask Give the logged outcome of this assay for the following molecule: `Nc1ccncc1`
-- reply N

-- ask Give the logged outcome of this assay for the following molecule: COC(=O)CCC(=O)O[C@H]1CCC2(C)C(CCC3C2C(=O)[C@@H](O)C2(C)C3CC3OC4(CCC(C)CO4)[C@@H](C)C32)C1 (stereo partly drawn)
-- reply N

-- ask Give the logged outcome of this assay for the following molecule: CC(CCC(=O)O)[C@H]1CCC2C3C[C@H](O)[C@@H]4C[C@H](O)CC[C@]4(C)C3CC[C@@]21C (stereo partly drawn)
-- reply N

-- ask Give the logged outcome of this assay for the following molecule: `COc1cc2c(cc1-c1cc3cc4ccoc4cc3oc1=O)OCO2`
-- reply N

-- ask Give the logged outcome of this assay for the following molecule: `O=C(O)Cc1cc(I)c(Oc2cc(I)c(O)c(I)c2)c(I)c1`
-- reply Y

====

Task for the reader: assign each of the following molecules its reported normalized growth.
experiment: chemical genetic growth profiling, strain panel (AID 1159580);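 also: tested at 20 µM; growth read once vehicle control cultures reached saturation at 30 °C; 1 = growth at the plate median or of vehicle wells; lower values mean less growth of the strain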; details: S. cerevisiae deletion strains, growth OD, locus YEL037C, strain rad23, stronger effect = lower value
The campaign covered roughly 5,500 compounds. About 2,000 (36%) were called active. Not shown: some 18% with an inconclusive outcome. This is one part of the list.
Numbers only.

{"columns": ["MOLECULE", "ENDPOINT NAME", "TEST VALUE"],
 "data": [
  ["CO[C@]12C[C@@H](COC(=O)c3cncc(Br)c3)CN(C)[C@@H]1Cc1cn(C)c3cccc2c13", "normalized growth", 0.995]
]}

Provide normalized growth for all items below, preserving their order.
1. C[C@H](N)[C@H](O)c1cccc(O)c1
2. CC(=O)Nc1nnc(S(N)(=O)=O)s1
3. O=C(O)CCC(=O)Nc1ccc(S(=O)(=O)Nc2nccs2)cc1
4. CC(=O)N=c1sc(S(N)(=O)=O)nn1C

-- reply
1. 1
2. 1.02
3. 1.01
4. 1

====

Task for the reader: assign each of the following compounds its reported normalized growth.
assay: chemical genetic growth profiling, strain panel (AID 1159580);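 also: tested at 20 µM; growth read once vehicle control cultures reached saturation at 30 °C; 1 = growth at the plate median or of vehicle wells; lower values mean less growth of the strain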; conditions: S. cerevisiae deletion strains, growth OD, locus YNL248C, strain rpa49, stronger effect = lower value
Out of some 5,500 compounds screened, about 2,000 (36%) were called active. Roughly 18% stayed inconclusive and do not appear here. The list shows a part of the results.
Numbers only.

{"columns": ["COMPOUND", "normalized growth"],
 "data": [
  ["CC1=C2[C@H]3OC(=O)[C@@H](C)[C@@H]3CC[C@@]2(C)C=CC1=O", 0.962],
  ["C[C@H](CCC(=O)O)[C@H]1CCC2C3C(CC[C@@]21C)[C@@]1(C)CC[C@@H](O)C[C@H]1C[C@H]3O (stereo partly specified)", 1.01],
  ["O=c1cc(-c2ccccc2)oc2cccc(O)c12", 0.755],
  ["CN(C)CCC(c1ccc(Br)cc1)c1ccccn1 (stereo unspecified)", 0.952],
  ["CC(CN1c2ccccc2Sc2ccccc21)N(C)C (stereo unspecified)", 0.971],
  ["CN(CCC(N)CC(=O)N[C@H]1C=CC(n2ccc(N)nc2=O)O[C@@H]1C(=O)O)C(=N)N (stereo partly specified)", 0.73]
]}

Provide normalized growth for all items below, preserving their order.
1. COc1c2ccccc2nc2occc12
2. CC(=O)OCC(=O)[C@@]1(O)[C@H](OC(C)=O)CC2C3CCC4=CC(=O)C=C[C@]4(C)[C@@]3(F)[C@@H](O)C[C@@]21C (stereo partly specified)
3. COc1cc([C@@H]2c3cc4c(cc3[C@H](OC(C)=O)[C@H]3COC(=O)[C@@H]23)OCO4)cc(OC)c1OC

-- reply
1: 0.75; 2: 0.937; 3: 0.961

====

assay: chemical genetic growth profiling, strain panel (AID 1159580);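 also: tested at 20 µM; growth read once vehicle control cultures reached saturation at 30 °C; 1 = growth at the plate median or of vehicle wells; lower values mean less growth of the strain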; settings: S. cerevisiae deletion strains, growth OD, locus YGL086W, strain mad1, stronger effect = lower value
Among all 5,500 compounds or so, about 2,000 (36%) were called active. About 18% were inconclusive and are not listed. Some of the results follow.
Task for the reader: assign each of the following compounds its reported normalized growth.
Numbers only.

Here is how some compounds turned out for normalized growth.
{"columns": ["COMPOUND", "normalized growth"],
 "data": [
  ["Cc1cc(C)cc(OCC2CNC(=O)O2)c1 (stereo not drawn)", 1.01],
  ["CC1CC2C3CC(F)C4=CC(=O)C=CC4(C)C3(F)C(O)CC2(C)C1C(=O)COC(=O)C(C)(C)C (stereo not drawn)", 0.96],
  ["C[C@]12C=CC(=O)C=C1CCC1C3C[C@@H](O)[C@](O)(C(=O)CO)[C@@]3(C)C[C@H](O)[C@@]12F (stereo partly drawn)", 0.996],
  ["CCCC(C(=O)OCCN(CC)CC)(c1ccccc1)c1ccccc1", 0.988]
]}

Provide normalized growth for all items below, preserving their order.
1. COc1c2ccccc2nc2occc12
2. N[C@H](Cc1ccccc1)C(=O)O
3. CC(=O)N=c1sc(S(N)(=O)=O)nn1C
4. O=C(O)Cc1cc(I)c(Oc2cc(I)c(O)c(I)c2)c(I)c1
5. CC(=O)Nc1nnc(S(N)(=O)=O)s1
6. C=C[C@H]1CN2CC[C@H]1C[C@@H]2[C@H](O)c1ccnc2ccccc12

-- reply
0.907
1.01
0.998
0.982
0.864
1.01

Provide normalized growth for all items below, preserving their order.
1. CCCCSP(=O)(SCCCC)SCCCC
2. C[C@H](N)[C@H](O)c1ccccc1
3. N[C@@H](Cc1cc(I)c(Oc2ccc(O)c(I)c2)c(I)c1)C(=O)O

-- reply
[1, 0.991, 0.99]
